# MEASURED TARGET: Steryl-sulfatase (Homo sapiens) (UniProt P08842)
# Sequence (whole entry): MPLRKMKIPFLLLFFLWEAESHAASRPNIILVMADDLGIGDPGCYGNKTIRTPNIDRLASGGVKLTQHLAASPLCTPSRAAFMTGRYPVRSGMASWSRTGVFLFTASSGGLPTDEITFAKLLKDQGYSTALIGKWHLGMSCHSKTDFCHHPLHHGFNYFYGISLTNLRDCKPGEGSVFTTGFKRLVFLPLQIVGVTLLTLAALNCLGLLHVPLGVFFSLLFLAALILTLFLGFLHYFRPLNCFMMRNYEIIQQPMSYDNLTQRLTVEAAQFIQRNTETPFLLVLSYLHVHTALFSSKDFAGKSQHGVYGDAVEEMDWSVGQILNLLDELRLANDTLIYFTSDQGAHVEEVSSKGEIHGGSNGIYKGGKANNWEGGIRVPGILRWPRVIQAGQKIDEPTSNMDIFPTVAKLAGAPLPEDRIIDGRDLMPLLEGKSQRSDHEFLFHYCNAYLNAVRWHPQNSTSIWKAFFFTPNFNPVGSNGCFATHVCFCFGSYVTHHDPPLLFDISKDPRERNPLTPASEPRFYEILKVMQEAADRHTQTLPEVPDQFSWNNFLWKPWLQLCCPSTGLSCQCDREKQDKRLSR
# TEST NAME: Inhibition of STS (unknown origin) expressed in HEK-293 cells assessed as transformation of [3H]-E1S into E1 at 1 uM by […]
# Format: cell-based
# EXPERIMENTAL PARAMETERS: HEK293
Decide using inhibition: a value greater than or equal to 60% is condition met, a smaller one is condition not met.

Problem: Dear colleague, could you confirm whether "CCCN(Cc1ccccc1)c1ccc(C(=O)N2CCc3ccc(OS(N)(=O)=O)cc3C2)cc1" has inhibition at or above 60%?
Solution: condition met

Problem: Dear colleague, could you confirm whether "CCN(Cc1cccc(Br)c1)c1cccc(C(=O)N2CCc3ccc(OS(N)(=O)=O)cc3C2)c1" has inhibition at or above 60%?
Solution: condition not met

Problem: Dear colleague, could you confirm whether "CCN(Cc1ccncc1)c1ccc(C(=O)N2CCc3ccc(OS(N)(=O)=O)cc3C2)cc1" has inhibition at or above 60%?
Solution: condition met

Problem: Dear colleague, could you confirm whether "CC(C)CCN(CCC(C)C)c1ccc(C(=O)N2CCc3ccc(OS(N)(=O)=O)cc3C2)cc1" has inhibition at or above 60%?
Solution: condition met

Problem: Dear colleague, could you confirm whether "CCCN(CCC)c1cccc(C(=O)N2CCc3ccc(OS(N)(=O)=O)cc3C2)c1" has inhibition at or above 60%?
Solution: condition not met

Problem: Dear colleague, could you confirm whether "CC(C)CCN(CCC(C)C)c1cccc(C(=O)N2CCc3ccc(OS(N)(=O)=O)cc3C2)c1" has inhibition at or above 60%?
Solution: condition met

Problem: Dear colleague, could you confirm whether "CN(C)CCCN(Cc1ccccc1)c1cccc(C(=O)N2CCc3ccc(OS(N)(=O)=O)cc3C2)c1" has inhibition at or above 60%?
Solution: condition not met

Problem: Dear colleague, could you confirm whether "NS(=O)(=O)Oc1ccc2c(c1)CN(C(=O)c1cccc(N3CCSCC3)c1)CC2" has inhibition at or above 60%?
Solution: condition not met
